B1: OAS1 (parent)
chain: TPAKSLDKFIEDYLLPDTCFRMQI

variants of: B1; test: protein stability index of a GFP-peptide fusion (GPS, HEK-293T) (PSI 1-6); higher = more stable; details: c terminus: a fixed tail appended;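 also: lentivirally expressed fusions sorted by FACS into six bins by GFP to DsRed ratio, PSI derived from sequencing read proportions per bin multiplied by bin number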

{"columns": ["Variant label", "protein stability index"],
 "data": [
  ["D7S", 3.08],
  ["L14G", 2.84],
  ["K8M", 2.04],
  ["P2I", 2.16],
  ["F20V", 2.97],
  ["M22P", 2.03],
  ["K4D", 2.19],
  ["D17N", 1.77],
  ["T1Y", 2.84],
  ["F9D", 2.17],
  ["K4T", 2.48],
  ["T18K", 1.83],
  ["C19K", 1.59],
  ["A3F", 3.88],
  ["M22E", 2.23],
  ["I10Y", 2.38],
  ["P16N", 2.65],
  ["R21N", 2.73],
  ["L6V", 1.97],
  ["L15F", 3.79],
  ["D12R", 3.33],
  ["P16M", 1.84],
  ["I24M", 1.7],
  ["I24Q", 1.67],
  ["Q23Y", 3.27],
  ["P16W", 1.9],
  ["T1D", 1.82],
  ["I24W", 2.39],
  ["M22V", 2.23],
  ["I24K", 1.99],
  ["D7L", 2.42],
  ["L15W", 2.56],
  ["L14M", 3.5],
  ["E11L", 3.59],
  ["I10A", 2.48],
  ["K8R", 3.07],
  ["C19I", 4.78],
  ["M22G", 2.51],
  ["M22T", 2.21],
  ["K8V", 3.42],
  ["L6W", 2.19],
  ["L6K", 1.61],
  ["I10M", 3.83],
  ["P2C", 3.55],
  ["M22F", 1.35],
  ["L15S", 2.26]
]}
